Reported IC50 by item:
# target_entity: BTK kinase (Homo sapiens (Human), UniProt Q06187)
# Sequence (Q06187 whole entry): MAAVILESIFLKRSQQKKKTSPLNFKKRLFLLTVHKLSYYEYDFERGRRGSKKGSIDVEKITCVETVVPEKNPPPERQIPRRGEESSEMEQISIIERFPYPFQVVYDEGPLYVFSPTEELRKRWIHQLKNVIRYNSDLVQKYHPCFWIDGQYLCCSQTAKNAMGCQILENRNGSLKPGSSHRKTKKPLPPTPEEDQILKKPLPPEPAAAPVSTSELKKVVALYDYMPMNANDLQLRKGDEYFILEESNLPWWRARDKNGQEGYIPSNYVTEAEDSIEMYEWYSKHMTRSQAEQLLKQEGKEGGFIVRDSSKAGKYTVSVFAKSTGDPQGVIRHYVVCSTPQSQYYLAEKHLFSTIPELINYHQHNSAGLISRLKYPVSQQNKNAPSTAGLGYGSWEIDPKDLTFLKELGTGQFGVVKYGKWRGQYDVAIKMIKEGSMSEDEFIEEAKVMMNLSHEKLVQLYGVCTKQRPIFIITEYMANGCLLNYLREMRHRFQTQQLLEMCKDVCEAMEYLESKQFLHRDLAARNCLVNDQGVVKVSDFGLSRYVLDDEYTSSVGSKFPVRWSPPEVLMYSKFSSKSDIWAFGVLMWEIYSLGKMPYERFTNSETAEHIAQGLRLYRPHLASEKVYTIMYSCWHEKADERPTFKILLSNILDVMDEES
# experimental_details: BTK kinase assay: time resolved-FRET (HTRF) assay
# Type: biochemical
# study_conditions: 10 nM BTK, 60 μM ATP, 1 μM substrate, 60 min
quantity_name: IC50 (µM)

INSERT INTO assay_data (smiles_input, experimental_result) VALUES
  ('C=CC(=O)Nc1cccc(-c2nc(Nc3ccc(N4CCOCC4)c(F)c3)ncc2Cl)c1', 0.287),
  ('C=CC(=O)Nc1cccc(-c2nc(Nc3ccc(N4CCOCC4)cc3)ncc2Cl)c1', 0.047),
  ('C=CC(=O)Nc1cccc(-c2nc(Cl)nc3[nH]ncc23)c1', 3.77),
  ('C=CC(=O)Nc1cccc(-c2nc(Nc3ccc(N4CCOCC4)cc3)nc3[nH]ncc23)c1', 0.045),
  ('C=CC(=O)Nc1cccc(-c2nc(Nc3ccc(N4CCOCC4)c(F)c3)nc3[nH]ncc23)c1', 0.126);

====

# System: OPM2 cells
# experimental_details: Cell viability assay in OPM2 cells with endogenous levels of BTK
# Assay type: cell-based
# study_conditions: Homo sapiens, OPM-2, absence of overexpressed BTK
quantity_name: IC50

INSERT INTO measurements (smiles_input, experimental_result) VALUES
  ('C=CC(=O)Nc1cccc(-c2nc(Nc3ccc(N4CCOCC4)cc3)ncc2Cl)c1', '~5.05 µM');

====

# target_entity: recombinant full-length human BTK kinase (Homo sapiens (Human), UniProt Q06187)
# Sequence (Q06187 whole entry): as above
# experimental_details: BTK kinase assay: ADP generation assay
# Assay type: biochemical
# study_conditions: 60 nM BTK, 1.6 μM ATP, 20 μM MBP substrate, 60 min
quantity_name: IC50 (µM)

INSERT INTO measurements (smiles_input, result_qualifier, experimental_result) VALUES
  ('C=CC(=O)Nc1cccc(-c2nc(Cl)ncc2Br)c1', '=', 4.7),
  ('C=CC(=O)Nc1cccc(-c2nc(Nc3ccc(N4CCOCC4)cc3)ncc2Cl)c1', '=', 0.033),
  ('C=CC(=O)Nc1cccc(-c2nc(Cl)ncc2Cl)c1', '=', 14.4),
  ('C=CC(=O)Nc1cccc(-c2nc(Cl)ncc2Nc2cccc(F)c2)c1', '=', 0.829),
  ('C=CC(=O)Nc1cccc(-c2nc(Nc3ccc(N4CCOCC4)c(F)c3)nc3[nH]ncc23)c1', '=', 0.23),
  ('C=CC(=O)Nc1cccc(-c2nc(Nc3ccc(N4CCOCC4)c(F)c3)ncc2Cl)c1', '=', 0.518),
  ('C=CC(=O)Nc1cccc(-c2nc(Nc3ccc(N4CCN(C)CC4)cc3)ncc2Cl)c1', '=', 1.27),
  ('C=CC(=O)Nc1cccc(-c2nc(Cl)ncc2Nc2ccccc2)c1', '=', 1.81),
  ('C=CC(=O)Nc1cccc(-c2nc(Cl)nc3[nH]ncc23)c1', '=', 0.263),
  ('C=CC(=O)Nc1cccc(-c2nc(Nc3ccc(N4CCOCC4)cc3)ncc2Nc2ccccc2)c1', '>', 100),
  ('C=CC(=O)Nc1cccc(-c2nc(Nc3ccc(N4CCOCC4)cc3)nc3[nH]ncc23)c1', '=', 0.079);

====

# target_entity: mutant form of EGFR (T790M) (Homo sapiens (Human), UniProt P00533, T790M)
# Sequence (P00533 25-1210 T790M): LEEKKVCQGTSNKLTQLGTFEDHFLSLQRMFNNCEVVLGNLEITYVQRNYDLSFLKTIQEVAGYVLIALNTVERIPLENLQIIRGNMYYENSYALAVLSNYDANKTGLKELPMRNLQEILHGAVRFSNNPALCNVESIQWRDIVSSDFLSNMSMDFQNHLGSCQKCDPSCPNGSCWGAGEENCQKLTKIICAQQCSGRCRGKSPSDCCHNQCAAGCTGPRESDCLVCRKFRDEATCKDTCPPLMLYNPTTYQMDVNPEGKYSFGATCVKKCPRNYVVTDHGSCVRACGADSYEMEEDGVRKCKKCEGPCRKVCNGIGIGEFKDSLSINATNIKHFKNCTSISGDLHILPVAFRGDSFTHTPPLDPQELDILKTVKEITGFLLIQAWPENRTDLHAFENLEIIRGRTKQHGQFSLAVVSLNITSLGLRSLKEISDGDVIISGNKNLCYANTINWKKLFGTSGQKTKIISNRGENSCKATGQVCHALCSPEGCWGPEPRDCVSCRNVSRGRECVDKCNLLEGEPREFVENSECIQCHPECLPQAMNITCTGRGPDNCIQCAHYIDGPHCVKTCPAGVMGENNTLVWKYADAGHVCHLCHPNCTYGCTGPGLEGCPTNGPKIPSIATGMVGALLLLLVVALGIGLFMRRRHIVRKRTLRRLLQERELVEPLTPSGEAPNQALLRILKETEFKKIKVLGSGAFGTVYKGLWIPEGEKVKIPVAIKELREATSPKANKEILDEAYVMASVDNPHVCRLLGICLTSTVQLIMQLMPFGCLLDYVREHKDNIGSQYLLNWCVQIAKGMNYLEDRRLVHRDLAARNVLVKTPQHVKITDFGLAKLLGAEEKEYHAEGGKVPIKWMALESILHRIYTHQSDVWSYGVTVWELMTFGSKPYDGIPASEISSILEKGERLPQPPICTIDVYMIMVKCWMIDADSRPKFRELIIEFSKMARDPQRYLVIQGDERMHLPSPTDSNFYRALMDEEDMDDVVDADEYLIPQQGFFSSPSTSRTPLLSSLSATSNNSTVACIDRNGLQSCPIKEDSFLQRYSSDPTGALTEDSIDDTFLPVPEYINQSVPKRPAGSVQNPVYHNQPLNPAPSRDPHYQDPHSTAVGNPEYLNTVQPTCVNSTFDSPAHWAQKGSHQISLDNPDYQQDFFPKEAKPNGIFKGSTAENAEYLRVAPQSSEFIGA
# experimental_details: LanthaScreen Eu Kinase Binding Assay, EGFR T790M
# study_conditions: tracer displacement
pIC50: −log10 of the molar value.
quantity_name: pIC50

INSERT INTO measurements (smiles_input, target_entity, experimental_result) VALUES
  ('C=CC(=O)Nc1cccc(-c2nc(Nc3ccc(N4CCOCC4)cc3)nc3[nH]ncc23)c1', 'mutant form of EGFR (T790M) (Homo sapiens (Human), UniProt P00533, T790M)', 8.57);
